Entry source: patent EP1149836B1

assayMethodText: half-life of dinalbuphine sebacoyl ester in human blood, HPLC
Format: in vitro ADME
conditionParameters: human blood test; read-out: half life
quantityKind: half-life (min)
Give the number; min is assumed, so skip it.

For record O=C(CCCCCCCCC(=O)Oc1ccc2c3c1O[C@H]1[C@@H](O)CC[C@@]4(O)[C@@H](C2)N(CC2CCC2)CC[C@]314)Oc1ccc2c3c1O[C@H]1[C@@H](O)CC[C@@]4(O)[C@@H](C2)N(CC2CCC2)CC[C@]314 the listed half-life is 9

* * *

assayMethodText: half-life of dinalbuphine sebacoyl ester in rabbit blood, HPLC
Assay type: in vitro ADME
conditionParameters: rabbit whole blood, n=3, mean± S.E; read-out: Elimination Half-life
quantityKind: half-life (min)
Give the number; min is assumed, so skip it.

For record O=C(CCCCCCCCC(=O)Oc1ccc2c3c1O[C@H]1[C@@H](O)CC[C@@]4(O)[C@@H](C2)N(CC2CCC2)CC[C@]314)Oc1ccc2c3c1O[C@H]1[C@@H](O)CC[C@@]4(O)[C@@H](C2)N(CC2CCC2)CC[C@]314 the listed half-life is 14.9

* * *

assayMethodText: half-life of dinalbuphine sebacoyl ester in rat blood, HPLC
Assay type: in vitro ADME
conditionParameters: rat plasma; read-out: Elimination Half-life
quantityKind: half-life (min)
Give the number; min is assumed, so skip it.

For record O=C(CCCCCCCCC(=O)Oc1ccc2c3c1O[C@H]1[C@@H](O)CC[C@@]4(O)[C@@H](C2)N(CC2CCC2)CC[C@]314)Oc1ccc2c3c1O[C@H]1[C@@H](O)CC[C@@]4(O)[C@@H](C2)N(CC2CCC2)CC[C@]314 [sebacoyl dinalbuphine ester] the listed half-life is 2.8

* * *

assayMethodText: pharmacokinetic study of long acting preparation in Beagle dog
Design: species or system Beagle dogs
conditionParameters: in vivo, comparison with sebacoyl dinalbuphine ester, read-out: half life for excretion (converted)
Counter-ions that a name gives are not always drawn.
quantityKind: half-life

For record Oc1ccc2c3c1O[C@H]1[C@@H](O)CC[C@@]4(O)[C@@H](C2)N(CC2CCC2)CC[C@]314 [Nalbuphine hydrochloride] the listed half-life is ~1 h

* * *

assayMethodText: half-life of dinalbuphine sebacoyl ester in rat blood, HPLC
Type: in vitro ADME
conditionParameters: rat whole blood, n=3, mean± S.E; read-out: Elimination Half-life
quantityKind: half-life (min)
Give the number; min is assumed, so skip it.

For record O=C(CCCCCCCCC(=O)Oc1ccc2c3c1O[C@H]1[C@@H](O)CC[C@@]4(O)[C@@H](C2)N(CC2CCC2)CC[C@]314)Oc1ccc2c3c1O[C@H]1[C@@H](O)CC[C@@]4(O)[C@@H](C2)N(CC2CCC2)CC[C@]314 [sebacoyl dinalbuphine ester] the listed half-life is 2.2

* * *

assayMethodText: half-life of dinalbuphine sebacoyl ester in human blood, HPLC
Format: in vitro ADME
conditionParameters: human whole blood, n=3; read-out: Elimination Half-life
quantityKind: half-life (min)
Give the number; min is assumed, so skip it.

For record O=C(CCCCCCCCC(=O)Oc1ccc2c3c1O[C@H]1[C@@H](O)CC[C@@]4(O)[C@@H](C2)N(CC2CCC2)CC[C@]314)Oc1ccc2c3c1O[C@H]1[C@@H](O)CC[C@@]4(O)[C@@H](C2)N(CC2CCC2)CC[C@]314 [sebacoyl dinalbuphine ester] the listed half-life is 8.8

* * *

assayMethodText: half-life of dinalbuphine sebacoyl ester in rabbit blood, HPLC
Type: in vitro ADME
conditionParameters: rabbit blood test; read-out: half life
quantityKind: half-life (min)
Give the number; min is assumed, so skip it.

For record O=C(CCCCCCCCC(=O)Oc1ccc2c3c1O[C@H]1[C@@H](O)CC[C@@]4(O)[C@@H](C2)N(CC2CCC2)CC[C@]314)Oc1ccc2c3c1O[C@H]1[C@@H](O)CC[C@@]4(O)[C@@H](C2)N(CC2CCC2)CC[C@]314 the listed half-life is 7
